- tgt: mouse Nat2 (Mus musculus, UniProt P50295)
- Construct: The mouse Nat2 open-reading frame [22] was sub-cloned into pET28b(+); hexa-histidine tag (His-tag, from pET28b(+)) (N, cleaved yes); made in house; host or cells: Escherichia coli Rosetta(DE3)pLysS
- Sequence (P50295 whole entry): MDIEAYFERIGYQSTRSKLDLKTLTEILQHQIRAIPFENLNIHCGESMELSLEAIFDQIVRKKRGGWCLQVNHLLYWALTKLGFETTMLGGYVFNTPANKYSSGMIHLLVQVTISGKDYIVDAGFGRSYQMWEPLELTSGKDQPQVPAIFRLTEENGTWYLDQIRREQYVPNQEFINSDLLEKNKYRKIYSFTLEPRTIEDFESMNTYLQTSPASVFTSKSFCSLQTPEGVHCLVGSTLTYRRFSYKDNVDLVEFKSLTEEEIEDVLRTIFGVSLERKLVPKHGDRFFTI
- assay protocol: Inhibition of mouse Nat2 acetylation of PABA (colorimetric DMAB assay)
- Type: biochemical
- measurement parameters: xenobiotic oestrogens; recombinant mouse Nat2 3 ng, PABA 75 μM, AcCoA 400 μM, 37 °C; read-out: IC50 mNAT2
property: IC50 (µM)
Dear colleague, please return just the value in µM, with no unit written.

Recorded IC50, per entry:
Record CC(C)(c1ccc(O)cc1)c1ccc(O)cc1 [Bisphenol A] : what is its IC50 with mouse Nat2 (Mus musculus, UniProt P50295)?
290

Record C[C@H]1CCC[C@H](O)CCC/C=C/c2cc(O)cc(O)c2C(=O)O1 [Alpha-Zearalenol] : what is its IC50 with mouse Nat2 (Mus musculus, UniProt P50295)?
70

Now consider a different compound.
Record C[C@H]1CCC[C@@H](O)CCC/C=C/c2cc(O)cc(O)c2C(=O)O1 [Beta-Zearalenol] : what is its IC50 with mouse Nat2 (Mus musculus, UniProt P50295)?
450
